test: protein stability index of a GFP-peptide fusion (GPS, HEK-293T) (PSI 1-6); higher = more stable; settings: treatment: DMSO; c terminus: a fixed tail appended;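 also: 24-mer peptide tiles fused after GFP, lentivirally expressed, FACS-sorted into six equal bins by GFP/DsRed ratio, decoded by Illumina sequencing, PSI is the read-weighted mean bin number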
experimental_endpoint: protein stability index
Numbers only.

Worked cases, answers included:
seq: HRRTVKMRKGNTMQQFLQKALEIL [FAM50A]
quantitative_result: 3.08
--
seq: NKRVGMYLEGFDPFNQSTFNNVVE [DLC1]
quantitative_result: 3.09
--
seq: CHSFISGTAPLNQETAEFFLSLDI [ACSBG2]
quantitative_result: 3.01
--
seq: ALRMATWNQILDPWVYILLRKAVL [PTGFR]
quantitative_result: 2.98
--
seq: PDSPATGAHWMRQLVSFQKLKLTN [TBX5]
quantitative_result: 2.92

// for each sequence in input: emit protein stability index
1. GSMVEIAKQLQAVKRKIRDESLCP [TRIM39]
2. TVDKEVEIRKKVLKIYNKREEDFP [MNAT1]

-- reply
[3.09, 4.08]

----------
What protein stability index was measured for each of the following?
experiment: protein stability index of a GFP-peptide fusion (GPS, HEK-293T) (PSI 1-6); higher = more stable; conditions: treatment: MLN4924 1 uM, 8 h; c terminus: a fixed tail appended
One number for each entry.

seq: NPTQNVRTILLSVISLLNEPNTFS [CDC34]
protein stability index: 2.95
--
seq: GRRAALYVHWPYCEKRCSYCNFNK [RSAD1]
protein stability index: 2.96
--
seq: PAYATTRIRSQIGNTESELKKLAE [GDAP1]
protein stability index: 4.53
--
seq: FLYMLMEYVPGGELFSYLRNRGRF [PRKX]
protein stability index: 2.42

Give me protein stability index for each of these sequences, listed below.
1. LGPCVVGYGIYYFIYSTWKGRTIY [SAT2]
2. VLDLSKSLSAALLTAALLTFDTGC [POMT2]
3. GMVRAHGVRVSVPCPSTTCCRACS [BET1L]
4. FQREALENSHTNTEVLRNMGFAAK [CHMP4C]

-- reply
[2.97, 2.98, 3.4, 4.08]

----------
experiment: protein stability index of a GFP-peptide fusion (GPS, HEK-293T) (PSI 1-6); higher = more stable; conditions: treatment: DMSO; c terminus: a fixed tail appended
experimental_endpoint: protein stability index
Answers are plain numbers.

Field: example entries. Status: answers known.
seq: INSGYETRRKKGKKDKDISKEKDT [KMT2E]
protein stability index: 4.59

seq: YEELRNSERAEVQRLEEQERRHRE [RSPH3]
protein stability index: 5.4

seq: MTVGILSNSLAIAILMKAYQRFRQ [PTGFR]
protein stability index: 2.17

Respectfully, I request protein stability index for each entry included below.
1. QLWGQKKKNSNMTYEKLSRAMRYY [ELF3]
2. FSQLYLYSFISLFIYMVLSLFIAL [MCOLN1]
3. LSPAQKDLYRDVMLENYSNLVSVG [ZNF649]
4. GKRRKDEISVDSLDFSKKILHTAW [PPP2R2B]
5. DEMVIVKDIDMFSMCEHHLVPFVG [GCH1]
6. LSASGPFESHDLLRKGFSCVKNEL [POMP]
7. VTCKDKKGYTPLHAAASNGQINVV [ANKRD44]
8. PWDKNPEALAKWAEGRTGFPWIDA [CRY1]

-- reply
2.29
3.28
2.37
2.34
2.76
3.37
3.34
3.08
